# System: ginsenoside glycosidases from A. oryzae
# protocol-text: Hydrolysis of ginsenosides with crude ginsenoside glycosidases from A. oryzae, TLC
# Type: biochemical, Aspergillus oryzae
# condition: pH 5.0, 30° C., 18 hours
Listing: Percentage of aglycone in the reaction product of selected compounds
measured-quantity: Percentage of aglycone in the reaction product (%)

compound	reported
CC(C)=CCC[C@](C)(O)[C@H]1CC[C@]2(C)[C@@H]1[C@H](O)C[C@@H]1[C@@]3(C)CC[C@H](O)C(C)(C)[C@@H]3[C@@H](O[C@@H]3O[C@H](CO)[C@@H](O)[C@H](O)[C@H]3O[C@@H]3O[C@@H](C)[C@H](O)[C@@H](O)[C@H]3O)C[C@]12C [Rg2, ginsenoside Rg2]	3
CC(C)=CCC[C@](C)(O[C@@H]1O[C@H](CO)[C@@H](O)[C@H](O)[C@H]1O)[C@H]1CC[C@]2(C)[C@@H]1[C@H](O)C[C@@H]1[C@@]3(C)CC[C@H](O)C(C)(C)[C@@H]3[C@@H](O[C@@H]3O[C@H](CO)[C@@H](O)[C@H](O)[C@H]3O[C@@H]3O[C@@H](C)[C@H](O)[C@@H](O)[C@H]3O)C[C@]12C [Re, ginsenoside Re]	5
CC(C)=CCC[C@](C)(O[C@@H]1O[C@H](CO)[C@@H](O)[C@H](O)[C@H]1O)[C@H]1CC[C@]2(C)[C@@H]1[C@H](O)C[C@@H]1[C@@]3(C)CC[C@H](O[C@@H]4O[C@H](CO)[C@@H](O)[C@H](O)[C@H]4O[C@@H]4O[C@H](CO)[C@@H](O)[C@H](O)[C@H]4O)C(C)(C)[C@@H]3CC[C@]12C [Rd, ginsenoside Rd]	5
